Origin of values: patent US20260209316A1

# MEASURED TARGET: T1, full-length Sudan GP (GPFL) (Sudan virus (SUDV), UniProt Q7T9D9 33-650)
# T1 construct: also called Sudan GPFL; GP(S)FL
# T1 sequence: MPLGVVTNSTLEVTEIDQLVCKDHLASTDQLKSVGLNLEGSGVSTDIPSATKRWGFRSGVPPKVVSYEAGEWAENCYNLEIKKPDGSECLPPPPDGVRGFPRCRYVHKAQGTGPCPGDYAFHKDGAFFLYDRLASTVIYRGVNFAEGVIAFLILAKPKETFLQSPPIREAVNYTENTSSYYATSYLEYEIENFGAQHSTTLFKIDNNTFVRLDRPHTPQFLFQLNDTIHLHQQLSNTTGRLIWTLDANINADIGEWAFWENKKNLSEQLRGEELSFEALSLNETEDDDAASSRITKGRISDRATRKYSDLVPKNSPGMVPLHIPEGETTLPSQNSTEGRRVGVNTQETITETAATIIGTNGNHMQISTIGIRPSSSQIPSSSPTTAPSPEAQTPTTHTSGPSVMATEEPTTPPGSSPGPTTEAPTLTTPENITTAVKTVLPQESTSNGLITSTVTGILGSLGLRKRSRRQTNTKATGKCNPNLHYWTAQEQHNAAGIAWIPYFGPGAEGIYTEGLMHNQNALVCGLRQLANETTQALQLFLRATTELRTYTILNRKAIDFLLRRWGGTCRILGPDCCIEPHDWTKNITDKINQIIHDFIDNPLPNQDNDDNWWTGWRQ
# TEST NAME: BLI, Fab, pH 5.3
MEASURE: log10 of koff (log10 of the value in s⁻¹)
Please note: log10 values; quantity koff; unit s⁻¹.

Query Fab generated from 285S (Fab, V domains shown) VH: QVQLVQSGAEVKKPGSSVKVSCKASGGTFSTYAITWVRQAPGQGLEWMGRIIPILRVANYAQKFQGRVTITADSSTSTAYMELSSLRSEDTAVYYCANLLAYCGGDCRSDYWGQGTLVTVSS VL: EIVLTQSPGTLSLSPGERATLSCRASQSVKNSYLAWYHQKPGQAPRLLIYGASSRATGIPDRFSGSGSGTDFTLTISRLEPEDFAVYYCQQYGSSLWTFGQGTKVDVK yields log10 of koff of -3.52

Quick note, log10 of koff for Fab generated from 578S (Fab, V domains shown, also called 578S Fab) VH: EVQLVESGGGVVQPGRSLRLSCAASGFTFSSYELHWVRQAPGKGLEWVAVISYDGSSKYYADSLKGRFTISRDNSKNTLSLQMNSLRAEDTAMYYCVRQSEAYCSDGRCDWRRALDIWGQGTMVTVSP VL: DIQMTQSPSSLSASVGDRVTITCQASQDIKNYLNWYQQKPGKAPKLLIYDVSKLETGVPSRFSGSGSGTDFSFTISSLQPEDIATYYCQQYDNLPSYTFGQGTKLEIK landed at -3.16

log10 of koff in this record for Fab generated from 335S (Fab, V domains shown, also called 335S Fab) VH: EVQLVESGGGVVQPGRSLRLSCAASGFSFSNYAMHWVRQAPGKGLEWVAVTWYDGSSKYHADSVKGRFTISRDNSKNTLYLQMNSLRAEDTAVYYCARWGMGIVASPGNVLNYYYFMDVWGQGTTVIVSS VL: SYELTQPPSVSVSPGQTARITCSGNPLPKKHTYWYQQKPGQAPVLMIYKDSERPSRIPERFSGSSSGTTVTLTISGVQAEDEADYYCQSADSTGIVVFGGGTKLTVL : -3.45

The value of log10 of koff measured for the binder Fab generated from 203S (Fab, V domains shown, also called 203S Fab) VH: QVQLVQSGAEVKKPGSSVKVSCKASGGTFSSYAISWVRQAPGQGLEWLGRILPALGLANYAQKYQDRVKITADKSTSTAYMELSRLGSEDTAVYYCARDRWVGAARRGQYFDYWGQGTQVTVSS VL: DIQMTQSPATLSASVGDRVTITCRASQSIGTWLAWYQQKPGKAPKLLIYDASSLESGVPPRFSGSGSETEFTLTISSLQPDDFATYYCHQYKSYSYTFGQGTKLEIK turned out to be -3.34

log10 of koff reported for this binder Fab generated from 365S (Fab, V domains shown, also called 365S Fab) VH: EVQLVESGGGLVQPGGSLRLSCAASGLTFSAYEMNWVRQAPGKGLEWVSHITTSGSAIYYADSVKGRFTISRDNAKNSLHLQMNRLRADDTAVYFCARDSTIVQCSGTSCHVSTYSYMDVWGKGTTVTVSS VL: EIVLTQSPATLSLSPGERATLSCRASQSVTTYLAWYQHKPGQAPRLLIYDASKRATGIPARFSGSGSGTDFTLTISSLEPEDFAVYHCQQRSSWPPITFGQGTRLEIK : -2.44
